Molecular target: T1, HLA-A*02 (peptide-receptive MHC class I monomer after UV-ligand exchange) (human)
T1 construct: also called HLA-A*02:01; HLA-A*0201
Test: UV-ligand exchange, b2m ELISA; peptide exchange yield grade (>=10% +; >=20% ++; >=50 +++; >=75% ++++)
READOUT_NAME: peptide exchange yield

Query: What does the data say about its peptide exchange yield? Entry: SLLSHQVLL [SLLSHQVLL (SEQ ID No. 20)]
Reply: 50 to 75%

Query: What do we get for YLLKDKGEYTL [YLLKDKGEYTL (SEQ ID No. 53)] ?
Reply: 50 to 75%

Query: What do we get for YLEEECPAT [YLEEECPAT (SEQ ID No. 11)] ?
Reply: 20 to 50%

Query: What do we get for TLLQVVGVVSV [TLLQVVGVVSV (SEQ ID No. 7)] ?
Reply: 20 to 50%

Query: What do we get for YLNDSLRHV [YLNDSLRHV (SEQ ID No. 21)] ?
Reply: 20 to 50%

Query: What do we get for TLWRGPVVV [TLWRGPVVV (SEQ ID No. 10)] ?
Reply: 50 to 75%

Query: What do we get for SMLGEEIQL (also called GREB-001) [SMLGEEIQL (SEQ ID No. 2)] ?
Reply: ≥ 75%

Query: What do we get for VTAQIGIVAV (also called OR51E2-001) [VTAQIGIVAV (SEQ ID No. 1)] ?
Reply: ≥ 75%

Query: What do we get for HLLEDIAHV (also called NEFH-001) [HLLEDIAHV (SEQ ID No. 3)] ?
Reply: ≥ 75%

Query: What do we get for AMAPNHAVV [AMAPNHAVV (SEQ ID No. 13)] ?
Reply: 50 to 75%

Query: What do we get for KMDEASAQLLA [KMDEASAQLLA (SEQ ID No. 15)] ?
Reply: 50 to 75%

Query: What do we get for KMDEASAQL [KMDEASAQL (SEQ ID No. 16)] ?
Reply: 50 to 75%

Query: What do we get for ALLTFVWKL (also called TRPM8-002) [ALLTFVWKL (SEQ ID No. 4)] ?
Reply: ≥ 75%

Query: What do we get for KMDEASAQLL [KMDEASAQLL (SEQ ID No. 14)] ?
Reply: 20 to 50%

Query: What do we get for GMLNEAEGKAIKL [GMLNEAEGKAIKL (SEQ ID No. 9)] ?
Reply: 50 to 75%

Query: What do we get for ALGDLVQSV [ALGDLVQSV (SEQ ID No. 52)] ?
Reply: 50 to 75%
